Ref: ChEMBL document CHEMBL5154804

- Test system: Candida albicans
- TEST_SUMMARY: Synergistic antifungal activity against fluconazole-resistant Candida albicans 632 assessed as inhibition of fungal growth in presence of fluconazole by checker board microdilution assay
- Type: functional
Please assign label 0 whenever MIC80 is at or above 2 µg/mL, and label 1 whenever it is below.

See these solved cases before continuing.
INSERT INTO assay_data (compound_string, assigned_category) VALUES
  ('CCNC(=O)c1noc(-c2cc(-c3cccc(C)c3)c(O)cc2O)c1-c1ccc(CN2CCOCC2)cc1', 'label 1'),
  ('C[C@@H]1C[C@H]2O[C@@H]2/C=C\C=C\C(=O)Cc2c(Cl)c(O)cc(O)c2C(=O)O1', 'label 1'),
  ('CCNC(=O)c1noc(-c2cc(-c3ccc(OC)cc3)c(O)cc2O)c1-c1ccc(CN2CCOCC2)cc1', 'label 0'),
  ('Cc1ccc(-c2cc(-c3onc(C(=O)N4CCCCC4)c3-c3ccc(CN4CCOCC4)cc3)c(O)cc2O)cc1', 'label 0'),
  ('CCNC(=O)c1noc(-c2cc(-c3ccc(C)cc3)c(O)cc2O)c1-c1ccc(CNC2CCN(C)CC2)cc1', 'label 0');

In the record for `Cc1ccc(-c2cc(-c3onc(C(=O)N4CCC4)c3-c3ccc(CN4CCOCC4)cc3)c(O)cc2O)cc1` , is MIC80 less than 2 µg/mL?
label 0

In the record for `CCNC(=O)c1noc(-c2cc(-c3ccc(C)cc3)c(O)cc2O)c1-c1ccc(CN2CCNC(=O)C2)cc1` , is MIC80 less than 2 µg/mL?
label 0

In the record for `CCNC(=O)c1noc(-c2cc(-c3ccccc3CC)c(O)cc2O)c1-c1ccc(CN2CCOCC2)cc1` , is MIC80 less than 2 µg/mL?
label 0

In the record for `CCNC(=O)c1noc(-c2cc(-c3ccccc3)c(O)cc2O)c1-c1ccc(CN2CCOCC2)cc1` , is MIC80 less than 2 µg/mL?
label 0

In the record for `CCNC(=O)c1noc(-c2cc(-c3cccc(Cl)c3)c(O)cc2O)c1-c1ccc(CN2CCOCC2)cc1` , is MIC80 less than 2 µg/mL?
label 1

In the record for `CCNC(=O)c1noc(-c2cc(-c3ccc(C)cc3)c(O)cc2O)c1-c1ccc(CN2CCC(N(C)C)CC2)cc1` , is MIC80 less than 2 µg/mL?
label 0
